Molecular target: T1, PACAP38 (human, not fully specified)
T1 construct: The background says natural PACAP is alpha-amidated
T1 peptide: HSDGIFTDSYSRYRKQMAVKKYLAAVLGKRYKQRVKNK
Assay: SPR (Biacore S200) off-rate ranking, antibody captured from supernatant, single injection of 33.3 nM PACAP38
readout.name: koff (s⁻¹)
State the answer as a number, implicitly in s⁻¹.

>  <binder>
609C (antibody, V domains shown) VH: EVQLVQSGAEVKKPGSSVKVSCKASGGTFSDLYMHWVRQAPGQGLEWMGLIYPIFADTRYAQKFQGRVTITADESTSTAYMELSSLRSEDTAVYYCAIDQDGSFAYWGQGTLVTVSS VL: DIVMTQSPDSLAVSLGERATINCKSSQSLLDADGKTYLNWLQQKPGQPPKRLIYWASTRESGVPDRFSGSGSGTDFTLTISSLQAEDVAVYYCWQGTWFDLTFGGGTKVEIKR

>  <value.units>
s⁻¹

>  <value.measured>
0.00118

$$$$
>  <binder>
608C (antibody, V domains shown) VH: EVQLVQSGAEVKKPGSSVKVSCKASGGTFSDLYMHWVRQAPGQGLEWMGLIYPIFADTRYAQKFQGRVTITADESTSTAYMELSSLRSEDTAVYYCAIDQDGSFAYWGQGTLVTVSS VL: DIVMTQSPDSLAVSLGERATINCKSSQSLLDSDGKTYLNWLQQKPGQPPKRLIYWASTRESGVPDRFSGSGSGTDFTLTISSLQAEDVAVYYCWQGTWFDLTFGGGTKVEIKR

>  <value.units>
s⁻¹

>  <value.measured>
0.00204

$$$$

Please look at the following binder next.
q: koff for 605C (antibody, V domains shown) VH: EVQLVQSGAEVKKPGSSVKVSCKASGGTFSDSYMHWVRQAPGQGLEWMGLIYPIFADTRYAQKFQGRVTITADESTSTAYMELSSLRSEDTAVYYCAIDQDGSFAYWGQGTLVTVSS VL: DIVMTQSPDSLAVSLGERATINCKSSQSLLDADGKTYLNWLQQKPGQPPKRLIYWASTRESGVPDRFSGSGSGTDFTLTISSLQAEDVAVYYCWQGTWFDLTFGGGTKVEIK ?
a: 0.000566
